The measurements presented in this section are drawn from patent US10039759B2.

Exercise: state measured log10(IC50) for each of the molecules provided.
Target: FGFR4 (h) (Homo sapiens)
Sequence (P22455 22-802): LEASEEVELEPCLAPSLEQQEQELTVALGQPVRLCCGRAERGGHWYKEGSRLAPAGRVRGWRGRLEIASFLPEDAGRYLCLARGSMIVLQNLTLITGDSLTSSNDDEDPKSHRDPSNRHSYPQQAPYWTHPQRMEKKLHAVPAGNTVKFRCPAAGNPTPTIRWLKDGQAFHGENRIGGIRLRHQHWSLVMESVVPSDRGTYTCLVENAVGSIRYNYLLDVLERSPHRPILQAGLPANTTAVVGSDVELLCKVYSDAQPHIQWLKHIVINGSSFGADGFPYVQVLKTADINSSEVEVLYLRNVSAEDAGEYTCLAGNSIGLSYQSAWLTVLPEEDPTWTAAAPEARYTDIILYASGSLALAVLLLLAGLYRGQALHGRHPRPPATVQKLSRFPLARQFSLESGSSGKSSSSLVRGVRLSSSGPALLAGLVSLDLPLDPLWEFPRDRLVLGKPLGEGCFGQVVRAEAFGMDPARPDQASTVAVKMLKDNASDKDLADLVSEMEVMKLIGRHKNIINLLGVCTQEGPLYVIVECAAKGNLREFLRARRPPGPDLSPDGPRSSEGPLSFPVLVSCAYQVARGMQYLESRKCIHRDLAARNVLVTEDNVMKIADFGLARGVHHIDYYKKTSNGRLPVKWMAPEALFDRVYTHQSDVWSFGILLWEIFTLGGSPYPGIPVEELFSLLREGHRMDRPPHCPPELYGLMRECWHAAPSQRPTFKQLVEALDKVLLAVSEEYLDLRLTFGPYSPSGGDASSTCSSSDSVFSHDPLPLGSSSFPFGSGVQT
Assay: FGFR4 (enzymatic assay), TR-FRET
Assay type: biochemical
Details: FGFR 4 pIC50, 5 μM ATP, 60 min; pIC50 = -log IC50 (M); average if tested multiple times
Heads up, the numbers here are log10 of IC50 in M units.

Looking for the measured log10(IC50) of COc1cc(Nc2ccc3ncc(-c4cnn(C5CCCCO5)c4)cc3c2)cc(OC)c1 (centres unmarked) , can you help?
-6.31

Now the molecule COc1cc(OC)cc(N(Cc2ncc[nH]2)c2ccc3ncc(-c4cnn(C)c4)cc3c2)c1
-8.32

Entry COc1cc(OC)cc(N(CCO)c2ccc3ncc(-c4ccccc4)cc3c2)c1 please
-6.59

Similarly, COc1cccnc1C#CCN(c1ccc2ncc(-c3cnn(C)c3)cc2c1)c1c(F)c(OC)cc(OC)c1F ?
-8.50

Param item: COc1cc(OC)cc(N(CCO)c2ccc3ncc(-c4cnn(C)c4)cc3c2)c1
-7.42

Record: COc1cc(OC)c(F)c(N(CC#Cc2ncccc2OC)c2ccc3ncc(-c4cnn(C)c4)cc3c2)c1
-7.90

How about COc1cc(OC)cc(N(CCNC(C)C)c2ccc3ncc(-c4cn[nH]c4)cc3c2)c1 ?
-8.27

Try COc1cc(OC)cc(/C(=C\C#N)c2ccc3ncc(-c4cnn(C)c4)cc3c2)c1 next.
-6.52

How about this molecule: COc1cc(OC)cc(N(Cc2ncc[nH]2)c2ccc3ncc(C4=CCNCC4)cc3c2)c1
-7.77

Repeat with COc1cc(OC)c(F)c(N(CCNC(C)C)c2ccc3ncc(-c4cnn(C)c4)cc3c2)c1F
-8.54

Same question, COc1cc(OC)cc(C(CCNC(C)C)c2ccc3ncc(-c4cnn(C)c4)cc3c2)c1 (centres unmarked) this time
-6.78

Please do the same for COc1cc(OC)cc(N(CC(O)C(F)(F)F)c2ccc3ncc(-c4cnn(C)c4)cc3c2)c1 (single isomer, unassigned) [Compound 25] as well.
-7.22

What do you get for COc1cc(OC)cc(N(CCCN2CCCC2=O)c2ccc3ncc(-c4cnn(C)c4)cc3c2)c1 ?
-7.08

What do you get for COc1cc(OC)cc(N(Cc2ncc[nH]2)c2ccc3ncc(-c4ccccc4)cc3c2)c1 ?
-7.78

Please give the result for COc1cc(OC)cc(N(CC#Cc2ncccc2OC)c2ccc3ncc(-c4cnn(C)c4)cc3c2)c1 too.
-6.56

###

Exercise: state measured log10 IC50 for each of the molecules provided.
Molecular target: KDR (h) (Homo sapiens, UniProt P35968)
Sequence (P35968 20-1356): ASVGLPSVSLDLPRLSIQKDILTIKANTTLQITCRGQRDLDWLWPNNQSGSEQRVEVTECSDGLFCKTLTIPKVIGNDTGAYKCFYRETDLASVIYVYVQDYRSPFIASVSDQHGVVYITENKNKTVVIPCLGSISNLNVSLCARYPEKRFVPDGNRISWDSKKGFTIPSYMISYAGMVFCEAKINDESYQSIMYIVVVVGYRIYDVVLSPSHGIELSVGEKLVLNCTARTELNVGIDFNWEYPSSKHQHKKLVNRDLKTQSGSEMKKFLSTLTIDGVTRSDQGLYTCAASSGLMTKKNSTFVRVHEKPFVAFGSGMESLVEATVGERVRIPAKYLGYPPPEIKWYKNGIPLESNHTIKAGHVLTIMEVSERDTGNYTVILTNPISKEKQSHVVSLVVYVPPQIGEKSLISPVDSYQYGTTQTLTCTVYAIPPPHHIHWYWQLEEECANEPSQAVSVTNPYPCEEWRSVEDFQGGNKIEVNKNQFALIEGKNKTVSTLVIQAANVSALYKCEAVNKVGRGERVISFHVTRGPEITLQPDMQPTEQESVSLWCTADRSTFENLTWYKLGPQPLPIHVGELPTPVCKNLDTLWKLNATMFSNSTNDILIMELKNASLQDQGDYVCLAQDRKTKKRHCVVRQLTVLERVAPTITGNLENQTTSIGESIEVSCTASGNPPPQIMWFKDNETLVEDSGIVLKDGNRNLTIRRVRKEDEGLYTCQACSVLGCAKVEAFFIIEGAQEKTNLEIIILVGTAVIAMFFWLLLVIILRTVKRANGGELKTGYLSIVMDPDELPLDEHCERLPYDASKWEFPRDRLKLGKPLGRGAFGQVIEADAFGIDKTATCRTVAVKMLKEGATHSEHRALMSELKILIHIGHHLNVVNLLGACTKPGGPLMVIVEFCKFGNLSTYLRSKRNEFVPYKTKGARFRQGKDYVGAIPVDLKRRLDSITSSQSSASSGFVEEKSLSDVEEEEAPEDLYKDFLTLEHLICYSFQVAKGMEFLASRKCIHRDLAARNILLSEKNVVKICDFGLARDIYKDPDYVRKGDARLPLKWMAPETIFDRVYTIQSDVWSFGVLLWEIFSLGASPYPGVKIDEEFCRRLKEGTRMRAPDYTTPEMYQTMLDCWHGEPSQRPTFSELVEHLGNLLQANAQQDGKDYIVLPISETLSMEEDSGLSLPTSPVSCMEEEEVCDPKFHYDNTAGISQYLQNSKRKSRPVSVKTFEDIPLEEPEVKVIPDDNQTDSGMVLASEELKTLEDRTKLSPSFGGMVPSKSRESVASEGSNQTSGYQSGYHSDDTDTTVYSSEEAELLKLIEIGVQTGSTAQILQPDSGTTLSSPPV
Test: KDR (VEGFR2) (enzymatic assay), TR-FRET
Assay type: biochemical
Conditions: 3 μM ATP, 120 min; pIC50 = -log IC50 (M); average if tested multiple times; read-out: VEGFR KDR pIC50 (converted)
Procedure: KDR (VEGFR2) (Enzymatic Assay) In a final reaction volume of 30 μL, KDR (h) (150 ng/ml) was incubated with 50 mM HEPES pH 7.5, 6 mM MnCl2, 1 mM DTT, 0.1 mM Na3VO4, 0.01% Triton-X-100, 500 nM Btn-Flt3 and 3 μM ATP in the presence of compound (1% DMSO final). […] Time-Resolved Fluorescence Resonance Energy Transfer (TR-FRET) signal (ex340 nm. Em 620 nm, em 655 nm) was measured afterwards and results are expressed in RFU (Relative Fluorescence Units). […]
Could you please treat all values as log10 of IC50 in M?

Value lookup for log10 IC50; key = COc1cc(OC)c(F)c(N(CC#Cc2ncccc2OC)c2ccc3ncc(-c4cnn(C)c4)cc3c2)c1
-6.37

Next molecule up: COc1cc(OC)cc(N(CCCO)c2ccc3ncc(-c4cnn(C)c4)cc3c2)c1
-6.86

Please do the same for COc1cc(OC)cc(N(CC(O)C(F)(F)F)c2ccc3ncc(-c4cnn(C)c4)cc3c2)c1 (single isomer, unassigned) [Compound 25] as well.
-6.23

Okay, and COc1cc(OC)cc(N(Cc2nccn2S(=O)(=O)N(C)C)c2ccc3ncc(-c4ccncc4)cc3c2)c1 ?
-6.14

Same thing, different molecule: COc1cc(OC)cc(N(Cc2ncc[nH]2)c2ccc3ncc(-c4cnn(C)c4)cc3c2)c1
-6.94

Another: COc1cc(Nc2ccc3ncc(-c4cnn(C5CCCCO5)c4)cc3c2)cc(OC)c1 (centres unmarked)
-6.50

What about CNCCN(c1ccc2ncc(-c3cnn(C)c3)cc2c1)c1c(F)c(OC)cc(OC)c1F ?
-7.83

Then COc1cc(OC)cc(N(Cc2ncccn2)c2ccc3ncc(-c4cnn(C)c4)cc3c2)c1 ?
-6.09

Also need COc1cc(OC)cc(N(CCNC(C)C)c2ccc3ncc(-c4cn[nH]c4)cc3c2)c1 , thanks.
-6.99

Same again, this time with COc1cc(OC)cc(N(CCCN2CCCC2CNS(=O)(=O)C(F)(F)F)c2ccc3ncc(-c4cnn(C)c4)cc3c2)c1 (centres unmarked)
-7.93

Then what about the molecule COc1cc(OC)cc(N(CC#Cc2nccn2C)c2ccc3ncc(-c4cnn(C)c4)cc3c2)c1 ?
-6.54

Cool, now COc1cc(OC)cc(N(CC2CCC(=O)N2)c2ccc3ncc(-c4cnn(C)c4)cc3c2)c1 (centres unmarked)
-7.28

Then this molecule: COc1cc(OC)cc(N(Cc2ncc[nH]2)c2ccc3ncc(-c4ccn(C)c4)cc3c2)c1
-6.59

And COc1cc(OC)cc(N(Cc2ncc[nH]2)c2ccc3ncc(-c4cccnc4)cc3c2)c1 ?
-6.07

Try COc1cc(OC)cc(/C(=C/C#N)c2ccc3ncc(-c4cnn(C)c4)cc3c2)c1 next.
-6.25

Then COc1cc(OC)cc(N(CCNC(C)C)c2ccc3ncc(-c4cnn(C5CCCCO5)c4)cc3c2)c1 (centres unmarked) ?
-7.36

Record: C#CCN(c1cc(OC)cc(OC)c1)c1ccc2ncc(-c3cnn(C)c3)cc2c1
-6.37

Do the same for COc1cc(OC)cc(N(CCO)c2ccc3ncc(-c4cnn(C)c4)cc3c2)c1 please
-7.04

// query: COc1cc(OC)c(F)c(N(CCNC(C)C)c2ccc3ncc(-c4cnn(C)c4)cc3c2)c1
-7.59

Try the molecule COc1cc(OC)cc(N(CCNC(C)C)c2ccc3ncc(-c4cnn(CCS(C)(=O)=O)c4)cc3c2)c1
-7.02

Input COc1cc(OC)cc(/C(=C\C#N)c2ccc3ncc(-c4cnn(C)c4)cc3c2)c1
-6.48

Further, for COc1cc(OC)cc(N(CCCN)c2ccc3ncc(-c4cnn(C)c4)cc3c2)c1 ?
-7.35

// next record COc1cc(OC)cc(N(Cc2ncc[nH]2)c2ccc3ncc(-c4ccncc4)cc3c2)c1
-6.34

Could you do the same for COc1cc(OC)c(F)c(N(CCNC(C)C)c2ccc3ncc(-c4cnn(C)c4)cc3c2)c1F , please?
-7.80
